# systemTested: human recombinant HDAC4 (Homo sapiens, UniProt P56524)
# Sequence (P56524 whole entry, looked up): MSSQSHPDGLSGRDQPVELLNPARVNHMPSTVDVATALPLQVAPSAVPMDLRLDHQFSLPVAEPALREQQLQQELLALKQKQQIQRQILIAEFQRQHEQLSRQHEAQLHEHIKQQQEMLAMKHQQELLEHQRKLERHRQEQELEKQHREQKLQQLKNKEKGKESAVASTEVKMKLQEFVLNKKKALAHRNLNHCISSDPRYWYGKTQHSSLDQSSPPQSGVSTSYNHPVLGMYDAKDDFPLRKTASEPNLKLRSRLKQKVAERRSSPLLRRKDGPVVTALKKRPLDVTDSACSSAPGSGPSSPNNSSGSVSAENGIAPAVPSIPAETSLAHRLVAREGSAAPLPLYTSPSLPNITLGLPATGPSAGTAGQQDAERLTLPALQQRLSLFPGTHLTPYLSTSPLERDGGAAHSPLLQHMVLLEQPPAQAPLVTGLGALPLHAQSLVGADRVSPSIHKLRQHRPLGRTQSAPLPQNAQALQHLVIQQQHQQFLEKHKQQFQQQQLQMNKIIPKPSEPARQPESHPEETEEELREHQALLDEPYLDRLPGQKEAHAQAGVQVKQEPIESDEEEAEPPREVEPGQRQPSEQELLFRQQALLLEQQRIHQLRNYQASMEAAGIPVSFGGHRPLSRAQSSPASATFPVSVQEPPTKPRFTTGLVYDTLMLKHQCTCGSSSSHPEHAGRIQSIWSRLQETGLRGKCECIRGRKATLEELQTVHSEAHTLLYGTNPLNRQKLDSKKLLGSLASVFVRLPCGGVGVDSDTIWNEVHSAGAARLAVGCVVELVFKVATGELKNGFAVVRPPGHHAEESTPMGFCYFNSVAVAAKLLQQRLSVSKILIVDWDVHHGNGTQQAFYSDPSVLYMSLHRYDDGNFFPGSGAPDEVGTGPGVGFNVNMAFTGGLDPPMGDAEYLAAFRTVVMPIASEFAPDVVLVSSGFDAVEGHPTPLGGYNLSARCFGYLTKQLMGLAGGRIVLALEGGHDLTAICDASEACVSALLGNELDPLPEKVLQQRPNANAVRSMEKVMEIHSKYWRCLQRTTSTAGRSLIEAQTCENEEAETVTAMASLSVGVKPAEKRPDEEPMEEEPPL
# assayComment: fluorogenic HDAC inhibition assay, HDAC4
# Format: biochemical
# experimentalContext: IC50 converted to Ki with KM (Cheng and Prusoff); read-out: Ki HDAC-4
pKi: −log10 of the molar value.
Outcome: Fulfilled for pKi of at least 7; Not fulfilled for anything lower.

[Q] Threshold query (pKi >= 7) on "CC(C)(C)c1cccc(O)c(=O)c1"
[A] Not fulfilled

[Q] Dear colleague, could you confirm whether "O=c1c(O)ccccc1-c1ccccc1" has pKi at or above 7?
[A] Fulfilled

[Q] In plain terms: is recorded pKi at least 7 for "COc1cccc(-c2cccc(O)c(=O)c2)c1" ?
[A] Fulfilled

[Q] Quick check: does "COc1ccc(-c2ccccc(O)c2=O)cc1" have pKi greater than or equal to 7?
[A] Fulfilled

[Q] Confirm if pKi reported for the compound "COc1ccc(-c2ccccc(O)c2=O)c(OC)c1OC" is 7 or above.
[A] Fulfilled

[Q] Does pKi meet or surpass 7 for "O=c1c(O)ccccc1-c1ccc2ccccc2c1" ?
[A] Fulfilled

[Q] Does the compound "COc1ccc(OC)c(-c2ccccc(O)c2=O)c1" have recorded pKi that is 7 or more?
[A] Not fulfilled

[Q] Is pKi at least 7? Consider "O=c1cc(C2CCCC2)cccc1O"
[A] Fulfilled

[Q] Threshold query (pKi >= 7) on "COc1ccc(OC)c(-c2cccc(O)c(=O)c2)c1"
[A] Not fulfilled

[Q] Decide: is the reported value of pKi for "CC(C)c1cccc(O)c(=O)c1" equal to or greater than 7?
[A] Fulfilled

---

Kindly supply the reported Ki values for the records listed here.
# systemTested: human recombinant HDAC8 (Homo sapiens (Human), UniProt Q9BY41)
# Sequence (Q9BY41 whole entry): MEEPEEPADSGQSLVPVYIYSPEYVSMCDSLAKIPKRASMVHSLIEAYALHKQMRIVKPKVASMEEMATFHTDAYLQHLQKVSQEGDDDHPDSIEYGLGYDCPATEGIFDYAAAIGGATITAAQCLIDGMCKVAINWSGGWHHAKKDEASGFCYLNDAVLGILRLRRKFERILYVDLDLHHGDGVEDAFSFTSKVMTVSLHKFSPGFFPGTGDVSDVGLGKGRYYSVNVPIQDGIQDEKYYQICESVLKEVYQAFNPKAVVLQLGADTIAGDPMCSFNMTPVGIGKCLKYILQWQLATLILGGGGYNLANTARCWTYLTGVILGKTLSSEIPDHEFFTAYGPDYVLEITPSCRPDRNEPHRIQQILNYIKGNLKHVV
# assayComment: fluorogenic HDAC inhibition assay, HDAC8
# experimentalContext: IC50 converted to Ki with KM (Cheng and Prusoff); read-out: Ki HDAC-8
Numbers only, in nM.

> print(dat)
                                   compound  value
1  CCC(C)c1cccc(O)c(=O)c1 (stereo not drawn)   10.1

Quick batch: Ki for everything below.
1. O=c1c(O)ccccc1-c1ccc2ccccc2c1
2. CC(C)c1cccc(O)c(=O)c1

[A]
1: 7.63; 2: 105

Parameter requested: Ki. Apply to each item below.
1. COc1ccc(OC)c(-c2cccc(O)c(=O)c2)c1
2. COc1ccc(-c2ccccc(O)c2=O)cc1
3. O=c1cccc(-c2ccccc2)cc1O

[A]
1. 1.42
2. 0.14
3. 19.4

Quick request: Ki for each listed item, please.
1. O=c1c(O)ccccc1-c1ccccc1
2. COc1ccc(-c2ccccc(O)c2=O)c(OC)c1OC
3. COc1ccc(OC)c(-c2ccccc(O)c2=O)c1

[A]
1. 0.17
2. 0.04
3. 0.44

// each compound listed below needs its Ki
1. COc1cccc(-c2cccc(O)c(=O)c2)c1
2. O=c1cc(C2CCCC2)cccc1O

[A]
1: 1.36; 2: 23.3

[Q] Requested read-out: Ki. Entry: "CC(C)(C)c1cccc(O)c(=O)c1"
[A] 2.69

---

# Tested on: HuT-78 cells
# assayComment: cell-based cytotoxicity assay (Cell Titer 96 Aqueous One), HuT-78
# experimentalContext: Homo sapiens, HuT78; 72-h exposure, absorbance at 490 nm
readout: pIC50
Answers are plain numbers, as −log10 of the molar value.

> print(dat)
                         smilesentry  readout  value
1    COc1ccc(OC)c(-c2ccccc(O)c2=O)c1    pIC50   5.52
2  COc1ccc(-c2ccccc(O)c2=O)c(OC)c1OC    pIC50   5.32
3            O=c1c(O)ccccc1-c1ccccc1    pIC50   5.11

Shifting focus to the compound that follows.
[Q] // fetch HuT-78 cells pIC50 for "COc1ccc(-c2ccccc(O)c2=O)cc1"
[A] 5.54
